System: Bacillus subtilis
Assay: cleaved RNA product abundance (RNA/gDNA barcode ratio) relative to median wild-type variant (ratio to wild type); higher = more accumulation of the downstream cleavage product
Conditions: experiment (reporter, strain, medium): exp 4a: truncated aprE reporter, strain BJT201 with 2% xylose (RNase J1 expressed); cleavage site: cggR-gapA (positions -7 to +36 mutated)
We begin with a simple list: items and their reported cleaved RNA product abundance.

Sequence String	cleaved RNA product abundance
ACAGACGAAGGAGCCGCAAAGAAGTTATTAAGGGATGTATAATCCCTAAATATAAATATCTCTCACTTATTTAAA	0.748
ACAGACGAAGGAGCCGCAAAGAACTTATTAAGGGATGAATAATACCTCAATATAAATATCTCTCACTTATTTAAA	0.165
ACAGACGAAGGAGCCGCAAAGAAGTTATTAAGGGATGAATAAACCCTCAATATATATATCTCTCACTTATTTAAA	0.477
ACAGACGAAGGAGCCGCATATAAGTTATTAATGGATGAATAATCCCTCAATATAAATATCTCTCACTTATTTAAA	0.131
ACAGACGAAGGAGCCGCAAAGAAGTTATTAACGGATCAATAATCCCTCAATATAAATATCTCTCACTTATTTAAA	0.104
ACAGACGAAGGAGCCGCAAAGAAGTTATTAATGGATGAATAATCCCTCAATATAAACATCTCTCACTTATTTAAA	0.116
ACAGACGAAGGAGCCGCAAAGAACATATTAAGGGATGAATAATCCCTCAATATAAATATCTCTCACTTATTTAAA	0.499

---

Tested on: Bacillus subtilis
Assay: cleaved RNA product abundance (RNA/gDNA barcode ratio) relative to median wild-type variant (ratio to wild type); higher = more accumulation of the downstream cleavage product
Conditions: experiment (reporter, strain, medium): exp 8a: truncated aprE reporter, strain BJT201 with 2% xylose (RNase J1 expressed); cleavage site: glnRA (positions -5 to +31 mutated)

Sequence String	cleaved RNA product abundance
CGACATGTCCCGCTTCTTTCATTAATACGTTAGCAACTGTTTTGCTATATACATTTACCATTTAAGAGGAGGAAT	0.353
CGACATGTCCCGCTTCTTTCATTAATCCGTTAACAACTGTTTTACTATATACATTTACCTTTTAAGAGGAGGAAT	0.222
CGACATGTCCCGCTTCTTTCATTAATCCGTTAGCAACAGTTTTGCTATATACATTTAACTTTTAAGAGGAGGAAT	0.916
CGACATGTCCCGCTTCTTTCATTAATCCGTTAGCAACTTATTTGCTATATACATTTACCTTTTAAGAGGAGGAAT	1.85
CGACATGTCCCGCTTCTTTCATTAATCCGTTAGCAACAGTTTTGCTATATACAATTACCTTTTAAGAGGAGGAAT	0.601
CGACATGTCCCGCTTCTTTCATTAATCTGTAAGCAACTGTTTTGCTATATACATTTACCTTTTAAGAGGAGGAAT	0.539
CGACATGTCCCGCTTCTTTCATTAATCCGTTAGAAACTCTTTTGCTATATACATTTACCTTTTAAGAGGAGGAAT	0.377
CGACATGTCCCGCTTCTTTCATTATTCCGTTAGCAACTGTATTGCTATATACATTTACCTTTTAAGAGGAGGAAT	1.36
CGACATGTCCCGCTTCTTTCATTAATCCGTTAGCAACTGTTTTCCTATATACATTTACTTTTTAAGAGGAGGAAT	0.31
CGACATGTCCCGCTTCTTTCATTAATCCGTTAGAAACTGTTTTGCTATATACATATACCTTTTAAGAGGAGGAAT	0.244
CGACATGTCCCGCTTCTTTCATTAATCCGTTAGCACCTGTTTTGCTATATACATTTACCTTTTAAGAGGAGGAAT	0.748
CGACATGTCCCGCTTCTTTCATTAATCCGTTAGCATCTATTTTGCTATATACATTTACCTTTTAAGAGGAGGAAT	1.53
CGACATGTCCCGCTTCTTTCATTAATCCGTTATCAACTGTTTTGCTATATACATTAACCTTTTAAGAGGAGGAAT	0.283
CGACATGTCCCGCTTCTTTCATTATTCCGTTAGCAACTGTTTTGCTATAGACATTTACCTTTTAAGAGGAGGAAT	0.917
CGACATGTCCCGCTTCTTTCATTAATCCGTTAGCAACTGTTTTGCCATATACATTTACGTTTTAAGAGGAGGAAT	0.6
CGACATGTCCCGCTTCTTTCATTAATCCGTTAGCAACTGTTTTGCTATATACATCTACCTTTTAAGAGGAGGAAT	0.867
CGACATGTCCCGCTTCTTTCATTAATCCGTTATCAAGTGTTTTGCTATATACATTTACCTTTTAAGAGGAGGAAT	0.202
CGACATGTCCCGCTTCTTTCATTAATCCGTTAGCAACTGTTTTGCTAGATACATTTACCTTTTAAGAGGAGGAAT	0.43
CGACATGTCCCGCTTCTTTCATTAATCCATTAGCCACTGTTTTGCTATATACATTTACCTTTTAAGAGGAGGAAT	0.271
CGACATGTCCCGCTTCTTTCATTAATCCGTTAGAAACTGATTTGCTATATACATTTACCTTTTAAGAGGAGGAAT	0.194
CGACATGTCCCGCTTCTTTCATTAATCCGTTAGCAACTGTTTCGCTTTATACATTTACCTTTTAAGAGGAGGAAT	0.267
CGACATGTCCCGCTTCTTTCATTAATCCCTTAGCAACTGTTTTACTATATACATTTACCTTTTAAGAGGAGGAAT	0.0875
CGACATGTCCCGCTTCTTTCATTAATCCGTTAGCAACTGCTTTGCTATATACATTAACCTTTTAAGAGGAGGAAT	0.575
CGACATGTCCCGCTTCTTTCATTAATCCGTTAGCGACTGTTTTGCTATATACATTTAACTTTTAAGAGGAGGAAT	0.418
CGACATGTCCCGCTTCTTTCATTAATCCGTTAGCAACTGTTTGGCTATATACATTTAACTTTTAAGAGGAGGAAT	0.488
CGACATGTCCCGCTTCTTTCATTAATCCGTTAGCAACTGTTTTTGTATATACATTTACCTTTTAAGAGGAGGAAT	0.494
CGACATGTCCCGCTTCTTTCATTAATCCTTTAGCAACTGTTTTGCGATATACATTTACCTTTTAAGAGGAGGAAT	0.366
CGACATGTCCCGCTTCTTTCATTAATCCGTTAACAACTGTTTTGCTATATACATTTATCTTTTAAGAGGAGGAAT	0.236
CGACATGTCCCGCTTCTTTCATTAATCCGATAGCAACTGTTTTCCTATATAAGCTTACCTTTTAAGAGGAGGAAT	0.295
CGACATGTCCCGCTTCTTTCATTAATCCGTTAGCAACTGTTTTGCGATATACATTAACCTTTTAAGAGGAGGAAT	0.781

---

We begin with a simple list: items and their reported cleaved RNA product abundance.
System: Bacillus subtilis
Test: cleaved RNA product abundance (RNA/gDNA barcode ratio) relative to median wild-type variant (ratio to wild type); higher = more accumulation of the downstream cleavage product
Settings: experiment (reporter, strain, medium): exp 8a: truncated aprE reporter, strain BJT201 with 2% xylose (RNase J1 expressed); cleavage site: glnRA (positions -5 to +31 mutated)
Readout Name: cleaved RNA product abundance

Sequence String	Observed Measurement
CGACATGTCCCGCTTCTTTCATTAATCCATTAGCAACTTTTTTGCTATATACATTTACCTTTTAAGAGGAGGAAT	0.569
CGACATGTCCCGCTTCTTTCATTAAACCGTTAGCAACTGTTTAACTATATACATTTACCTTTTAAGAGGAGGAAT	0.444
CGACATGTCCCGCTTCTTTCATTAATCCGTTAGCAACTGTTTTCCTATATACATTTATCTTTTAAGAGGAGGAAT	0.55
CGACATGTCCCGCTTCTTTCATTAATCCGTAAGCAACTGTTTTGCCATATACATTTACCTTTTAAGAGGAGGAAT	0.295
CGACATGTCCCGCTTCTTTCATTAATCCCTTAGCAACTGTTTTGATATATACATTTAACTTTTAAGAGGAGGAAT	0.245
CGACATGTCCCGCTTCTTTCATTAATCCGTTAGCAATTGTTTTGCTATATAAATTTACCTTTTAAGAGGAGGAAT	1.01
CGACATGTCCCGCTTCTTTCATTAATCCGTTAGCAACATTTTTGCTATATACATTTACCTTTTAAGAGGAGGAAT	1.12
CGACATGTCCCGCTTCTTTCATTAATCCGTTAGCAACTGTTTTGCTATATTCATATACCTTTTAAGAGGAGGAAT	0.449
CGACATGTCCCGCTTCTTTCATTAATCCGTTAACAACTGTTTTTCTATATACATATACCTTTTAAGAGGAGGAAT	0.304
CGACATGTCCCGCTTCTTTCATTAATCCGTTAGCAACTGTTTTGCTATATACATATTCCTTTTAAGAGGAGGAAT	0.511
CGACATGTCCCGCTTCTTTCATTAATCCGTTATCAACTGTTTGGCTATATACATTTACCTTTTAAGAGGAGGAAT	0.231
CGACATGTCCCGCTTCTTTCATTAATCCGTTTGCAACTGTTATGCTATATACATTTACCTTTTAAGAGGAGGAAT	0.428
CGACATGTCCCGCTTCTTTCATTAATCCGTTAGCAACTGTTTTGCTATATACATTACCCTTTTAAGAGGAGGAAT	0.597
CGACATGTCCCGCTTCTTTCATTAATCCGTTAACAACTGTTTTGCTATATACATTTACCTTTTAAGAGGAGGAAT	0.217
CGACATGTCCCGCTTCTTTCATTAAACCGTTAGCAACTGTTTTGTTATATACATTTACCTTTTAAGAGGAGGAAT	0.313
